Test system: Staphylococcus aureus
experiment: Antibacterial activity against Staphylococcus aureus TS2921 harboring ddlA Asp102Asn mutation in presence of 100 mM D-Ala-D-Ala, which complements temperature sensitivity after 20 hrs
Assay type: functional
assay-context: TS2921, 20 h
quantity: MIC (µg/mL)
Give the number; µg/mL is assumed, so skip it.

The cases that follow already have their MIC on record.
- N[C@@H]1CONC1=O: 50
- O=C(N[C@H](CO)[C@H](O)c1ccc([N+](=O)[O-])cc1)C(Cl)Cl: 3.1
- CCn1cc(C(=O)O)c(=O)c2cc(F)c(N3CCNCC3)cc21: 0.63
- CN(C)[C@@H]1C(O)=C(C(N)=O)C(=O)[C@@]2(O)C(O)=C3C(=O)c4c(O)cccc4[C@@](C)(O)[C@H]3C[C@@H]12: 0.031
- CN[C@H](CC(C)C)C(=O)N[C@H]1C(=O)N[C@@H](CC(N)=O)C(=O)N[C@H]2C(=O)N[C@H]3C(=O)N[C@H](C(=O)N[C@H](C(=O)O)c4cc(O)cc(O)c4-c4cc3ccc4O)[C@H](O)c3ccc(c(Cl)c3)Oc3cc2cc(c3O[C@@H]2O[C@H](CO)[C@@H](O)[C@H](O)[C@H]2O[C@H]2C[C@](C)(N)[C@H](O)[C@H](C)O2)Oc2ccc(cc2Cl)[C@H]1O: 1.6

Now consider a different compound.
Problem: Record CO[C@@]1(NC(=O)CSC(F)F)C(=O)N2C(C(=O)O)=C(CSc3nnnn3CCO)CO[C@@H]21 : what is its MIC with Staphylococcus aureus?
Result: 0.4
